Where these numbers come from: paper PMC3159451

- assay-target: cMBD2 MBD R46C (Gallus gallus (chicken), UniProt Q5EFL0 2-71, R45C)
- measurement-description: SPR
readout-name: pKd
# pKd = -log10(concentration in molar units)

For the binder shown here, rho-globin mCpG WT 10 bp (dsDNA, 5-methyl-C at position 5 of both strands (mC105, mC115)) DNA 1: GGATCGGCTC DNA 2: GAGCCGATCC , give the reported pKd. 3.23
